Data credit: ChEMBL document CHEMBL2439987

Give measured pKi for each item. Keep answers brief.
- testedOn: Transient receptor potential cation channel subfamily V member 1 (Homo sapiens)
- testProtocol: Antagonist activity at human TRPV1 expressed in CHOK1 cells assessed as inhibition of capsaicin-induced activity by FLIPR assay
- Type: cell-based, CHO-K1
- setupConditions: read-out: Ki
Just the number, please; pKi means minus log10 of the concentration in mol/L.

I looked up CC(C(=O)NCc1ccc(C(F)(F)F)nc1SCc1cccs1)c1ccc(NS(C)(=O)=O)c(F)c1 (stereo not given) and its pKi for Transient receptor potential cation channel subfamily V member 1 (Homo sapiens) was 7.82

I looked up `C[C@H](C(=O)NCc1ccc(C(C)(C)C)cc1)c1ccc(NS(C)(=O)=O)c(F)c1` and its pKi for Transient receptor potential cation channel subfamily V member 1 (Homo sapiens) was 7.55

I looked up CC(C(=O)NCc1ccc(C(F)(F)F)nc1SCC(F)(F)F)c1ccc(NS(C)(=O)=O)c(F)c1 (stereo not given) and its pKi for Transient receptor potential cation channel subfamily V member 1 (Homo sapiens) was 8.37

I looked up CCCCCCSc1nc(C(F)(F)F)ccc1CNC(=O)C(C)c1ccc(NS(C)(=O)=O)c(F)c1 (stereo not given) and its pKi for Transient receptor potential cation channel subfamily V member 1 (Homo sapiens) was 8.25

I looked up CC1CCC(Sc2nc(C(F)(F)F)ccc2CNC(=O)C(C)c2ccc(NS(C)(=O)=O)c(F)c2)CC1 (stereo not given) and its pKi for Transient receptor potential cation channel subfamily V member 1 (Homo sapiens) was 9.30

###

Give measured IC50 for each item. Keep answers brief.
- testedOn: Transient receptor potential cation channel subfamily V member 1 (Homo sapiens, UniProt Q8NER1)
- Sequence (Q8NER1 whole entry): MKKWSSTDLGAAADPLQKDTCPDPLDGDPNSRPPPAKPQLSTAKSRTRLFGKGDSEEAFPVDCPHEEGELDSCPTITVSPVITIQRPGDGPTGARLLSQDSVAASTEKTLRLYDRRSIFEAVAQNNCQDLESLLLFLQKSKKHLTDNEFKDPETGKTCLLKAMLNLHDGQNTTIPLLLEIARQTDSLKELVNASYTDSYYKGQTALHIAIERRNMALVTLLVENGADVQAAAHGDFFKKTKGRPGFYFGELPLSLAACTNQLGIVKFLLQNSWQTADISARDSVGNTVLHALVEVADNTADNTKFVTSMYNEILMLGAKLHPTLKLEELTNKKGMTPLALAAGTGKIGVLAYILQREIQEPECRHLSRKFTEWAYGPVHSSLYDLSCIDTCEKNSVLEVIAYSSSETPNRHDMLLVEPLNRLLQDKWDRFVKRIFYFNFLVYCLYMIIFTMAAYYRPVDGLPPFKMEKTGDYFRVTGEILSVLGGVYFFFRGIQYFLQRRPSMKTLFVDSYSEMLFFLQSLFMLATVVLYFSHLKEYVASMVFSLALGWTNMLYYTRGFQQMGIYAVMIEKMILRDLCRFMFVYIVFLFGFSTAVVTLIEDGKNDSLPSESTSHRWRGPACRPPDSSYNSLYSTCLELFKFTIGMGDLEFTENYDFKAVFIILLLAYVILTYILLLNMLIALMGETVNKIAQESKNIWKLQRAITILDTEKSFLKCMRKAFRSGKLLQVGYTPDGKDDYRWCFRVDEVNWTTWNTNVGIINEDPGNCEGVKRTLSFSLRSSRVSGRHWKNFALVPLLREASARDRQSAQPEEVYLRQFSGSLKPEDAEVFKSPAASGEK
- testProtocol: Antagonist activity at human TRPV1 expressed in CHOK1 cells assessed as inhibition of pH-induced activity by FLIPR assay
- Format: cell-based, CHO-K1
The reply should read as a number followed by its unit.

# compound `C[C@H](C(=O)NCc1ccc(C(C)(C)C)cc1)c1ccc(NS(C)(=O)=O)c(F)c1` ; its IC50 = 1280 nM

# compound COc1ccc(CSc2nc(C(F)(F)F)ccc2CNC(=O)C(C)c2ccc(NS(C)(=O)=O)c(F)c2)cc1 (centres undefined) ; its IC50 = 279 nM

# compound CC1CCN(CCCSc2nc(C(F)(F)F)ccc2CNC(=O)C(C)c2ccc(NS(C)(=O)=O)c(F)c2)CC1 (centres undefined) ; its IC50 = 217 nM

# compound COC(=O)CCSc1nc(C(F)(F)F)ccc1CNC(=O)C(C)c1ccc(NS(C)(=O)=O)c(F)c1 (centres undefined) ; its IC50 = 1100 nM

###

- testedOn: Transient receptor potential cation channel subfamily V member 1 (Homo sapiens)
- testProtocol: Antagonist activity at human TRPV1 expressed in CHOK1 cells assessed as inhibition of capsaicin-induced activity by FLIPR assay
- Format: cell-based, CHO-K1
- setupConditions: read-out: Ki
observable: pKi
Just the number, please; pKi means minus log10 of the concentration in mol/L.

# compound `C[C@H](C(=O)NCc1ccc(C(F)(F)F)nc1SC1CCCCC1)c1ccc(NS(C)(=O)=O)c(F)c1` ; its pKi = 9.40

# compound CC1CCN(CCCSc2nc(C(F)(F)F)ccc2CNC(=O)C(C)c2ccc(NS(C)(=O)=O)c(F)c2)CC1 (stereo not drawn) ; its pKi = 8.54

# compound CC(C(=O)NCc1ccc(C(F)(F)F)nc1SCc1ccco1)c1ccc(NS(C)(=O)=O)c(F)c1 (stereo not drawn) ; its pKi = 7.84

# compound CC(C(=O)NCc1ccc(C(F)(F)F)nc1SCCCBr)c1ccc(NS(C)(=O)=O)c(F)c1 (stereo not drawn) ; its pKi = 8.15

# compound CC(C(=O)NCc1ccc(C(F)(F)F)nc1SC1CCCC1)c1ccc(NS(C)(=O)=O)c(F)c1 (stereo not drawn) ; its pKi = 8.92

# compound CC(C(=O)NCc1ccc(C(F)(F)F)nc1SCCc1ccccc1)c1ccc(NS(C)(=O)=O)c(F)c1 (stereo not drawn) ; its pKi = 8.72

# compound CC(C(=O)NCc1ccc(C(F)(F)F)nc1SCc1cccc(C(F)(F)F)c1)c1ccc(NS(C)(=O)=O)c(F)c1 (stereo not drawn) ; its pKi = 8.41

# compound CC(C(=O)NCc1ccc(C(F)(F)F)nc1SC1CCC(C(C)(C)C)CC1)c1ccc(NS(C)(=O)=O)c(F)c1 (stereo not drawn) ; its pKi = 8.59
